RUN_DESCRIPTION: Exposure and pharmacokinetics of sulfasalazine in spinal cord and plasma of SOD1 mice
STUDY_CONDITIONS: SOD1, mouse, spinal cord/plasma, ip, 200 mg/kg
VALUE_KIND: Kp at 5 min
Give the figure by itself; no unit, no explanation.

Entry O=C(O)c1cc(/N=N/c2ccc(S(=O)(=O)Nc3ccccn3)cc2)ccc1O [Sulfasalazine] : reported Kp at 5 min = ?
0.23

====

RUN_DESCRIPTION: Exposure and pharmacokinetics of sulfasalazine in spinal cord and plasma of SOD1 mice
STUDY_CONDITIONS: SOD1, mouse, spinal cord/plasma, ip, 200 mg/kg
VALUE_KIND: Kp at 60 min

Entry O=C(O)c1cc(/N=N/c2ccc(S(=O)(=O)Nc3ccccn3)cc2)ccc1O : reported Kp at 60 min = ?
0.08

Source of measurements: patent US10398713B2
